The reported numbers originate from paper PMC7897990.

- Test system: T. foetus
- experiment-notes: Pre-optimisation Mtz drug-sensitivity testing, 96-well, T. foetus
- Type: cell-based
- test-settings: Tritrichomonas foetus, 65 h, Cα: 10 cells/µL, 100 µL, 65 h, read-out: Mtz IC50 T. foetus
quantity: pIC50
# pIC50: negative log10 of molar concentration; output just the value

Challenge: Recorded pIC50 for "Cc1ncc([N+](=O)[O-])n1CCO" , please?
Response given: 5.66

---

- Tested on: T. vaginalis
- experiment-notes: Miniaturised Mtz drug-sensitivity assay, 384-well plates
- Assay type: cell-based
- test-settings: Trichomonas vaginalis, 24 h, C6: 384-well, 500 cells/well, 25 µL, 24 h
quantity: pIC50
Remember the convention: pIC50 equals -log10 of concentration in molar.

Challenge: // query pIC50 value for entry "Cc1ncc([N+](=O)[O-])n1CCO"
Response given: 5.69

---

- Test system: Trichomonas vaginalis G3 trophozoites
- test-settings: HTS replicate 1; parasite screen 1 µg/mL
Answer each item with its documented T.vaginalis_%inb_Rep1.
The answer is to be given in %; state only the numeric part.

Challenge: Tell me the measured T.vaginalis_%inb_Rep1 of CCCCC[C@@H]1CC[C@H](C)CCCCC(=O)N(C)[C@@H](Cc2ccc(OCCO)cc2)C(=O)O1 [PF1163B] , please.
Response given: 17.85

Challenge: What value of T.vaginalis_%inb_Rep1 has been reported for the following molecule? "Cc1cc(=O)n2c3c(c4c(cc13)c(CO)cc(=O)n4C)OC2"
Response given: 11.05

Challenge: What does the data say about its T.vaginalis_%inb_Rep1? Entry: CCC/C=C/C=C/[C@@H]1C[C@@H](O)[C@@H](O)C(=O)[C@H]1CO [Palitantin]
Response given: 13.59

Challenge: # lookup: T.vaginalis_%inb_Rep1 of "COc1ccc([C@@]2(O)c3c(ccc(/C=C/[C@]4(C)CCC(C)(C)CO4)c3O)NC(=O)[C@@H]2OC)cc1"
Response given: 16.23

Challenge: GET /values?readout=T.vaginalis_%inb_Rep1&item= "C[C@@H]1[C@H](O)[C@@H](C)/C=C/C=C/CC/C=C/C=C/C=C/C=C/[C@H](O[C@@H]2O[C@H](C)[C@@H](O)[C@H](N)[C@@H]2O)C[C@@H]2O[C@](O)(C[C@@H](O)[C@H](O)CC[C@@H](O)C[C@@H](O)C[C@@H](O)CC(=O)O[C@H]1C)C[C@H](O)[C@H]2C(=O)O"
Response given: 11.66

Challenge: Please look up its T.vaginalis_%inb_Rep1: CN(C)C1C(=O)C(C(=O)NCN2CCN(CCO)CC2)=C(O)C2(O)C(=O)C3=C(O)c4c(O)cccc4C(C)(O)C3CC12 (stereo not shown)
Response given: 11.66

Challenge: # get_value(readout='T.vaginalis_%inb_Rep1', item= "CC[C@H]1/C=C/C=C/C[C@@H](C)[C@H](O)[C@@](C)(O)C(=O)[C@@H](C)[C@H](O)[C@@H](C)C(=O)[C@@H](C)[C@H](O)[C@@H](C)/C=C/C(=O)O[C@@H]2[C@H](C)[C@H](CC1)O[C@@]1(O[C@@H](C[C@@H](C)O)[C@@H](C)CC1=O)[C@H]2C" )
Response given: 12.98

Challenge: Can you look up the measured T.vaginalis_%inb_Rep1 of "COc1c(OC)c(-c2c[nH]c3ccc(O)cc23)c(OC)c(OC)c1-c1c[nH]c2ccccc12" for me?
Response given: 7.91

Challenge: Item "COc1cc(C)c(C(=O)O)c(OC)c1" has what recorded T.vaginalis_%inb_Rep1?
Response given: 12.73

Challenge: So what's the measured T.vaginalis_%inb_Rep1 for this one? COc1cc(CC2C(=O)OCC2Cc2ccc3c(c2)OCO3)ccc1O (stereo not shown) [Pluviatolide]
Response given: 12.12

Challenge: State the recorded T.vaginalis_%inb_Rep1 for this entry: "Cc1ncc(-c2c[nH]c3ccccc23)o1"
Response given: 11.61

Challenge: Sample "CO[C@@H]1C[C@H]2C=C[C@H]3[C@H]4O[C@]2(/C(C)=C\[C@@H](C)[C@@H]([C@@H](C)O)OC1=O)[C@@H]3[C@H](O)[C@@H](C)[C@H]4O" — what was its T.vaginalis_%inb_Rep1?
Response given: 11.16

Challenge: Item under review: "CCCCCCCC(=O)N[C@H]1CCOC1=O" . Reported T.vaginalis_%inb_Rep1?
Response given: 16.84

---

What T.vaginalis_%inb_Rep1 was measured for each of the following?
- System: Trichomonas vaginalis G3 trophozoites
- test-settings: HTS, parasite screen at 1 µg/mL, replicate 1
Starred links: 1 amine or outer side, 2 acyl side, 3 side chain; linkers in the order of their positions; H or OH if unused. Positions of bridges follow the written chain, without caps; N, C: chain ends. Non-standard residues stand in square brackets, D forms with d. Residues, ends and D or L forms follow the SMILES beside them. hTyr(3S-OH,4S-OH,3'-OSO3H) = N[C@H](C(=O)O)[C@H](O)[C@@H](O)c1ccc(O)c(OS(=O)(=O)O)c1; Orn(4R-OH,5R-OH) = O=C([C@H](C[C@@H](O)[C@@H](O)N[*:3])N[*:1])[*:2]; Pro(3S-OH,4S-Me) = C[C@H]1CN[C@H](C(=O)O)[C@H]1O; Gln(3R-OH) = NC(=O)C[C@@H](O)[C@H](N)C(=O)O; Hyp = O=C(O)[C@@H]1C[C@@H](O)CN1; GABA = NCCCC(=O)O
Respond numerically; units are % and should not be typed.

Challenge: May I ask what T.vaginalis_%inb_Rep1 has been recorded for "CC1=CC[C@H]2C(C)(C)CCC[C@]2(C)[C@H]1CO" ?
Response given: 14.49

Challenge: Any idea what T.vaginalis_%inb_Rep1 was measured for "COC1=C(O)c2c(O)cc(C)c3c(O)cc(O)c(c23)C1=O" ?
Response given: 14.50

Challenge: Name the reported T.vaginalis_%inb_Rep1 value associated with the molecule CCC1NC(=O)C(NC(=O)c2ncccc2O)C(C)OC(=O)C(c2ccccc2)NC(=O)C2CC(=O)CCN2C(=O)C(Cc2ccccc2)N(C)C(=O)C2CCCN2C1=O (stereo not shown)
Response given: 9.96

Challenge: Name the recorded T.vaginalis_%inb_Rep1 for CC(C)C[C@@H]1NC(=O)[C@@H](C(C)C)NC(=O)[C@@H](C)NC(=O)CCCNC(=O)[C@@H](Cc2c[nH]c3ccccc23)NC(=O)[C@@H](C)NC(=O)[C@@H](C(C)C)NC1=O [Unguisin B] (cyclo([GABA][dA][dV]L[dV][dA][dW])) .
Response given: 10.17

Challenge: Need T.vaginalis_%inb_Rep1 of "CO[C@H]1C[C@H](O[C@H]2[C@H](C)O[C@@H](O[C@@H]3/C(C)=C/C[C@@H]4C[C@@H](C[C@]5(C=C[C@H](C)[C@@H](C6CCCCC6)O5)O4)OC(=O)[C@@H]4C=C(C)[C@@H](O)[C@H]5OC/C(=C\C=C\[C@@H]3C)[C@]54O)C[C@@H]2OC)O[C@@H](C)[C@@H]1O" , thanks.
Response given: 11.20

Challenge: # input molecule: "O=c1[nH]c2ccccc2c(-c2cccc(O)c2)c1O" ; wanted: its T.vaginalis_%inb_Rep1
Response given: 6.71

Challenge: Item under review: CCOC(=O)c1c(C)cc(O)cc1O [Ethyl orsellinate] . Reported T.vaginalis_%inb_Rep1?
Response given: 14.45

Challenge: Look at this molecule and give its reported T.vaginalis_%inb_Rep1. C[C@@H](O)[C@@H]1NC(=O)[C@@H](N)C[C@@H](O)[C@@H](O)NC(=O)[C@@H]2[C@@H](O)[C@@H](C)CN2C(=O)[C@H]([C@H](O)CC(N)=O)NC(=O)[C@H]([C@H](O)[C@@H](O)c2ccc(O)c(OS(=O)(=O)O)c2)NC(=O)[C@@H]2C[C@@H](O)CN2C1=O [FR 179642] (H-[Orn(4R-OH,5R-OH)]T[Hyp][hTyr(3S-OH,4S-OH,3'-OSO3H)][Gln(3R-OH)][Pro(3S-OH,4S-Me)]; lactam 1-C)
Response given: 12.98

Challenge: Report T.vaginalis_%inb_Rep1 for CC1CCCC(O)CCCCCc2cc(O)cc(O)c2C(=O)O1 (stereo not drawn) [Zearalanol, beta-] please.
Response given: 9.65

Challenge: Given CC1=CCCC(C)C(O)C(C)C(O)CCC=CC(C)C(O)C=CC(C)C(O)C(C)=CC(O[C@H]2O[C@H](CO)[C@@H](O)[C@H](O)[C@@H]2O)C(O)CC(O)CC(O)CC(O)C(C)C(O)C(C)C(O)CC(O)CC(O)C=CCC(C(C)C(O)CCCN)OC1=O (stereo partly shown) , state its recorded T.vaginalis_%inb_Rep1.
Response given: 12.39

---

- Tested on: Trichomonas vaginalis G3 trophozoites
- test-settings: parasite screen at 1 µg/mL, replicate 2
Threshold check on T.vaginalis_%inb_Rep2: strictly below 10% is fulfilled; on or above 10% is not fulfilled.

Challenge: Does the reported T.vaginalis_%inb_Rep2 of the following molecule sit strictly below 10%? "CN(C)[C@@H]1C(=O)C(C(N)=O)=C(O)[C@@]2(O)C(=O)C3=C(O)c4c(O)cccc4C[C@H]3C[C@@H]12.Cl"
Response given: fulfilled

Challenge: Does "CN(C)[C@@H]1C(O)=C(C(=O)NCN2CCCC2)C(=O)[C@@]2(O)C(O)=C3C(=O)c4c(O)cccc4[C@@](C)(O)[C@H]3C[C@@H]12" have T.vaginalis_%inb_Rep2 strictly under 10%?
Response given: not fulfilled

Challenge: Is T.vaginalis_%inb_Rep2 strictly under 10% for the entry "CC1(C)C=Cc2c(ccc3ccc(=O)oc23)O1" ?
Response given: not fulfilled

Challenge: # check: T.vaginalis_%inb_Rep2 < 10% for "CN(N=O)C(=O)N[C@@H]1[C@@H](O)[C@H](O)[C@@H](CO)O[C@@H]1O"
Response given: fulfilled

Challenge: Quick check: does "COc1cc(-c2ccc(O)cc2)c(OC)c(O)c1-c1ccc(O)cc1" have T.vaginalis_%inb_Rep2 under 10%?
Response given: not fulfilled

Challenge: Item "COC(=O)c1cc(O)cc(OC)c1C(=O)c1c(O)cc(C)cc1O" : T.vaginalis_%inb_Rep2 beneath 10%, strictly?
Response given: not fulfilled

Challenge: Does this molecule meet the criterion T.vaginalis_%inb_Rep2 < 10%? "C=CC(C)(C)[C@@]12C[C@H]3C(=O)N/C(=C/c4c[nH]cn4)C(=O)N3[C@@H]1Nc1ccccc12"
Response given: fulfilled

Challenge: Given the entry CCCCCCCCCCCCCCCC(=O)C1=C(O)C(CO)OC1=O (stereo not drawn) , would its reported T.vaginalis_%inb_Rep2 be below 10%?
Response given: not fulfilled

Challenge: Please let me know if "COc1c(O)cc2cc(C)oc(=O)c2c1O" shows T.vaginalis_%inb_Rep2 below 10%.
Response given: not fulfilled
